experiment: Quantitative High-Throughput drug screen in 47 multiple myeloma cell lines against the NCATS MIPE library collection: SKMM1_PLB cell viability assay (AID 1919863); conditions: SKMM1 myeloma viability, CellTiter-Glo ATP, 48 h; further: potency means the concentration at half of the fitted maximal effect; nearly all actives have a fitted effect of over 35% in size
Results filed as inconclusive are left out. Active and inactive are the calls of the source. The call rests on the fitted dose curve; in most records, active means well fitted cell-killing curve with a large enough effect; inconclusive means small, poorly fitted or top-dose-only effect, or effect the other way; inactive means no such curve, though single readings can be large or run the other way.
quantity-name: Potency

Sample answers from the record:
| molecule | Potency |
| --- | --- |
| C[C@@H]1[C@@H](C(=O)C[C@H]2O[C@@H]3O[C@]4(C)CC[C@@H]5[C@H](C)CC[C@@H]([C@H]2C)[C@@]35OO4)O[C@@H]2O[C@]3(C)CC[C@H]4[C@H](C)CC[C@@H]1[C@@]24OO3 | 0.743 µM (active) |
| C[C@@H]1O[C@@H](O[C@H]2C[C@@H](O)[C@]3(CO)[C@H]4[C@H](O)C[C@]5(C)[C@@H](C6=CC(=O)OC6)CC[C@]5(O)[C@@H]4CC[C@]3(O)C2)[C@H](O)[C@H](O)[C@H]1O | 0.059 µM (active) |
| N[C@@H](Cc1ccc(N(CCCl)CCCl)cc1)C(=O)O | 26.4 µM (active) |
| COC[C@H]1OC(=O)c2coc3c2[C@@]1(C)C1=C(C3=O)C2CCC(=O)[C@@]2(C)C[C@H]1OC(C)=O (stereo partly specified) | 2.96 µM (active) |
| O=C(O)C(=O)c1cn(Cc2ccccc2)c2ccc(-c3ccc(OC(F)(F)F)cc3)cc12 | 3.72 µM (active) |

Shift focus to the following entry.
Lookup: Bench note: what Potency did CNC(=O)N1N=C(c2ccc(N)cc2)c2cc3c(cc2CC1C)OCO3 (stereo unspecified) show?
Found: 5.26 µM (active)

----------
experiment: Quantitative High-Throughput drug screen in 47 multiple myeloma cell lines against the NCATS MIPE library collection: KMS28BM_JCRB cell viability assay (AID 1919874); details: CellTiter-Glo ATP, 48 h; series mostly up to 45.8 µM; further: nearly all actives have a fitted effect of over 35% in size; further: potency means the concentration at half of the fitted maximal effect
Inconclusive results are not listed. Calls of active or inactive are those of the source. The call rests on the fitted dose curve; in most records, active means well fitted cell-killing curve with a large enough effect; inconclusive means small, poorly fitted or top-dose-only effect, or effect the other way; inactive means no such curve, though single readings can be large or run the other way.
quantity-name: Potency

| molecule | Potency |
| --- | --- |
| C[C@@H]1[C@@H](CC(C[C@H]2O[C@@H]3O[C@]4(C)CC[C@@H]5[C@H](C)CC[C@@H]([C@H]2C)[C@@]35OO4)C[S+](=O)([O-])c2ccc(COC(=O)N(C)C)cc2)O[C@@H]2O[C@]3(C)CC[C@H]4[C@H](C)CC[C@@H]1[C@@]24OO3 (stereo partly drawn) | 0.264 µM (active) |
| COc1ccc(C(=O)c2c(C)n(CCN3CCOCC3)c3ccccc23)cc1 | inactive |
| Fc1ccc(C(OCCN2CCN(CCCc3ccccc3)CC2)c2ccc(F)cc2)cc1 | 13.2 µM (active) |
| COC[C@@H](NC(C)=O)C(=O)NCc1ccccc1 | inactive |
| CN(C)[C@@H]1C(=O)C(C(N)=O)=C(O)[C@@]2(O)C(=O)C3=C(O)c4c(O)cccc4[C@@](C)(O)[C@H]3C[C@@H]12 | inactive |
| CNC(=O)c1ccc(N2C(=S)N(c3ccc(C#N)c(C(F)(F)F)c3)C(=O)C23CCC3)cc1F | inactive |
| Cc1sc2c(c1C)C(c1ccc(Cl)cc1)=N[C@@H](CC(=O)OC(C)(C)C)c1nnc(C)n1-2 | 0.105 µM (active) |

Lookup: Data request, read-out Potency, for CNCC(O)c1ccc(O)cc1 (stereo not drawn)
Found: inactive

----------
assay: Cellular Toxicity (caspase-3) MRC-5 (AID 659); conditions: MRC-5 cells, luminescence, normalized: DMSO 0%, 10 µM staurosporine 100%; series mostly up to 91.7 µM;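 further: cells exposed to compound for 16 h at 37 °C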
The source made the active and inactive calls. Calls come from the whole dose curve; as a rule, active = well fitted curve in the direction sought with a large enough effect; inconclusive = small, poorly fitted or top-dose-only effect, or another doubt; inactive = no such curve, though single readings can be large or run the other way.
quantity-name: outcome

Take a look at these entries with their results.
| compound | quantity-name | recorded-result |
| --- | --- | --- |
| CCOP(=S)(OCC)Oc1cc(C)nc(C(C)C)n1 | outcome | inactive |
| Oc1cccc2cccnc12 | outcome | inactive |
| NCC(O)c1ccc(O)cc1 (centres undefined) | outcome | inactive |
| OCCOc1ccccc1 | outcome | inactive |
| Oc1ccccc1-c1ccccc1 | outcome | inactive |

Lookup: Entry CCCC(C)(COC(N)=O)COC(=O)NC(C)C (centres undefined) : reported outcome = ?
Found: inactive

Lookup: What measured outcome goes with Oc1ccc(Cl)cc1Cc1ccccc1 ?
Found: inactive

Lookup: Name the reported outcome value associated with the compound c1ccc2c(c1)Nc1ccccc1S2
Found: inactive

Lookup: Any idea what its outcome is? The compound is C[C@]12C/C(=C/O)C(=O)C[C@@H]1CC[C@@H]1[C@@H]2CC[C@@]2(C)[C@H]1CC[C@]2(C)O
Found: inactive

----------
target: Nicotinamide N-methyltransferase (Homo sapiens); test: Confirmatory Screen for Target Class Profiling of Small Molecule Inhibitors of Methyltransferases (AID 1745852); settings: MTase-Glo luminescence, SAH detection, recombinant enzyme; measured here: NNMT max response; stronger effect = lower value
quantity-name: activity (%)
Record the value in %, omitting the unit from your answer.

Some solved cases for reference:
| cpd-smiles | activity [%] |
| --- | --- |
| Nc1ccncc1 | -30.8 |
| N#CC(C#N)=Cc1ccc(O)c(O)c1 | -6.68 |
| CC(C)=CCOc1c2occc2cc2ccc(=O)oc12 | -26.3 |
| CN1C[C@H](CNC(=O)OCc2ccccc2)C[C@@H]2c3cccc4c3c(cn4C)C[C@H]21 | -16.1 |

Lookup: Name the recorded activity for CC[N+](CC)(CC)CC .
Found: -4.15

----------
test: qHTS Assay for Identifying Gametocytocidal Compounds (AID 743244); further: potency means the concentration at half of the fitted maximal effect; conditions: P. falciparum 3D7 stage III-V gametocytes, alamarBlue, 72 h
Records with an inconclusive call do not appear. Activity calls are given as the source filed them. Calls follow the shape of the dose curve; as a rule, active = well fitted curve in the direction sought with a large enough effect; inconclusive = small, poorly fitted or top-dose-only effect, or another doubt; inactive = no such curve, though single readings can be large or run the other way.
Listed below: Potency values for each entry.

Some solved cases for reference:
| compound | Potency |
| --- | --- |
| C[C@@H]1[C@@H](CC(C[C@H]2O[C@@H]3O[C@]4(C)CC[C@@H]5[C@H](C)CC[C@@H]([C@H]2C)[C@@]35OO4)C[S+](=O)([O-])c2ccc(COC(=O)N(C)C)cc2)O[C@@H]2O[C@]3(C)CC[C@H]4[C@H](C)CC[C@@H]1[C@@]24OO3 (stereo partly specified) | 0.0023 µM (active) |
| C[C@@H]1[C@@H](C(=O)C[C@H]2O[C@@H]3O[C@]4(C)CC[C@@H]5[C@H](C)CC[C@@H]([C@H]2C)[C@@]35OO4)O[C@@H]2O[C@]3(C)CC[C@H]4[C@H](C)CC[C@@H]1[C@@]24OO3 | 0.0066 µM (active) |
| O=[N+]([O-])c1cc([As](=O)(O)O)ccc1O | 3.98 µM (active) |
| Clc1ccc(CCC(Cn2ccnc2)Sc2c(Cl)cccc2Cl)cc1 (stereo unspecified) | 7.94 µM (active) |
| Clc1ccc(COC(Cn2ccnc2)c2ccc(Cl)cc2Cl)cc1 (stereo unspecified) | 10 µM (active) |

Could you now look at the following compound, please?
Lookup: Need Potency of CC1=C2C[C@@H]3[C@@H](CC=C4C[C@@H](O)CC[C@@]43C)[C@@H]2CC[C@]12O[C@H]1C[C@H](C)CN[C@H]1[C@H]2C , thanks.
Found: 23.5 µM (active)

----------
test: qHTS drug screen for cell cycle checkpoint inhibitors in PARPi-resistant BRCA-mutant ovarian cancer cell lines. (AID 1963452); settings: PEO1/OlaR viability, CellTiter-Glo luminescence, 96 h; measured here: PEO1 parental Z-AUC; stronger effect = lower value
Bucketed by reported Z-AUC, buckets being low = under 0.1, intermediate = from 0.1 up to 0.6, high = 0.6 and over

Solved entries (count: 3):
| molecule | class-assignment |
| --- | --- |
| COC1(CS(=O)c2ccccc2)CCN(CCc2c[nH]c3ccc(F)cc23)CC1 (configuration not stated) | intermediate |
| Cn1c(CCCC(=O)O)nc2cc(N(CCCl)CCCl)ccc21 | high |
| O=c1[nH]c2ccccc2n1CCCN1CCC(n2c(=O)[nH]c3cc(Cl)ccc32)CC1 | high |

// switching to the query molecule
Lookup: Which of the defined bands does the recorded Z-AUC of C=C(C)[C@H]1Cc2c(ccc3c2O[C@@H]2COc4cc(OC)c(OC)cc4[C@@H]2C3=O)O1 sit within?
Found: low

----------
test: qHTS for Inhibitors of the Functional Ribonucleoprotein Complex (vRNP) of Lymphocytic Choriomeningitis Arenaviruses (LCMV): Viability assay - alamar blue signal for LCMV Primary Screen (AID 1347085); conditions: alamar blue viability counter-screen, LCMV vRNP screen cells; series mostly up to 57.5 µM; further: nearly all actives have a fitted effect of over 80% in size
Records with an inconclusive call do not appear. Activity calls are given as the source filed them. Calls come from the whole dose curve; tested in HEK293 reporter line.
// one of active, inactive, no free text

| compound | class-assignment |
| --- | --- |
| O=c1[nH]c2ccccc2n1C1CCN(CCCC(c2ccc(F)cc2)c2ccc(F)cc2)CC1 | inactive |
| CCC(C)n1ncn(-c2ccc(N3CCN(c4ccc(OC[C@H]5CO[C@](Cn6cncn6)(c6ccc(Cl)cc6Cl)O5)cc4)CC3)cc2)c1=O (stereo not given in full) | inactive |
| O=C(CCCCCCC(=O)Nc1ccccc1)NO | active |
| CCN(CC)CCCC(C)Nc1ccnc2cc(Cl)ccc12 (stereo not given) | inactive |
| Cc1ccc(S(=O)(=O)NC(=O)NN2CC3CCCC3C2)cc1 (stereo not given) | inactive |
| CN1C[C@H](CNC(=O)OCc2ccccc2)C[C@@H]2c3cccc4c3c(cn4C)C[C@H]21 | inactive |
| O=C(O)C(=O)c1cn(Cc2ccccc2)c2ccc(-c3ccc(OC(F)(F)F)cc3)cc12 | inactive |
| CC1(C)NC(=O)N(c2ccc([N+](=O)[O-])c(C(F)(F)F)c2)C1=O | inactive |
| CC1OC(C)OC(C)O1 (stereo not given) | inactive |
| Fc1ccc([C@@H]2CCNC[C@H]2COc2ccc3c(c2)OCO3)cc1 | inactive |

Lookup: So what was the verdict on Clc1ccc(C(c2ccccc2Cl)C(Cl)Cl)cc1 (stereo not given) in this test?
Found: inactive

Lookup: # outcome recorded in this test, key = CCOP(=S)(OCC)Oc1cc(C)nc(C(C)C)n1
Found: inactive

Lookup: Test call for this compound, please: C[C@@H](NCCCc1cccc(C(F)(F)F)c1)c1cccc2ccccc12
Found: inactive

Source: PubChem BioAssay (NCATS)
